assayProcedure: ATG_GATA_CIS: Attagene CIS-FACTORIAL HepG2 Assay for human GATA Binding Protein (AID 2282944)
assayContext: HepG2 GATA cis-element reporter, Attagene multiplex mRNA; actives raise or lower the signal
The source made the active and inactive calls. How the source made its calls: active means hit-call score of the fitted dose curve at least 0.9, where 1 is the maximum; inactive means score below 0.9.
readoutName: outcome

> print(dat)
                                    molecule  readoutname  endpointvalue
 1  Cc1cc(C2(c3cc(C)c(O)cc3C)OS(=O)(=O)c3ccccc32)c(C)cc1O      outcome       inactive
 2  O=C1C(c2[nH]c3ccc(S(=O)(=O)O)cc3c2O)=Nc2ccc(S(=O)(=O)O)cc21      outcome       inactive
 3  CN(CCOc1ccc(CC2SC(=O)NC2=O)cc1)c1ccccn1 (configuration not stated)      outcome       inactive
 4  C[C@H]1C[C@H]2[C@@H]3CCC4=CC(=O)C=C[C@]4(C)[C@@]3(F)[C@@H](O)C[C@]2(C)[C@@]1(O)C(=O)COP(=O)(O)O      outcome       inactive
 5                     c1ccc(CCCc2ccccn2)cc1      outcome       inactive
 6            O=C[C@@H](O)[C@H](O)[C@H](O)CO      outcome       inactive
 7  CCCCCCCCCCCCCCCC(=O)OC[C@H](O)[C@H]1OC(=O)C(O)=C1O      outcome       inactive
 8  CC1(CO)CN(c2ccccc2)NC1=O (configuration not stated)      outcome       inactive
 9             O=Cc1ccc(Cl)c([N+](=O)[O-])c1      outcome       inactive
10      CC(C)=CCC[C@](C)(O)[C@@H]1CC=C(C)CC1      outcome       inactive
11                       O=S(=O)(O)NC1CCCCC1      outcome       inactive
12                                    [Ca+2]      outcome       inactive

====

tgt: Glucocorticoid receptor (Homo sapiens) (UniProt P04150)
Sequence (P04150 whole entry, looked up): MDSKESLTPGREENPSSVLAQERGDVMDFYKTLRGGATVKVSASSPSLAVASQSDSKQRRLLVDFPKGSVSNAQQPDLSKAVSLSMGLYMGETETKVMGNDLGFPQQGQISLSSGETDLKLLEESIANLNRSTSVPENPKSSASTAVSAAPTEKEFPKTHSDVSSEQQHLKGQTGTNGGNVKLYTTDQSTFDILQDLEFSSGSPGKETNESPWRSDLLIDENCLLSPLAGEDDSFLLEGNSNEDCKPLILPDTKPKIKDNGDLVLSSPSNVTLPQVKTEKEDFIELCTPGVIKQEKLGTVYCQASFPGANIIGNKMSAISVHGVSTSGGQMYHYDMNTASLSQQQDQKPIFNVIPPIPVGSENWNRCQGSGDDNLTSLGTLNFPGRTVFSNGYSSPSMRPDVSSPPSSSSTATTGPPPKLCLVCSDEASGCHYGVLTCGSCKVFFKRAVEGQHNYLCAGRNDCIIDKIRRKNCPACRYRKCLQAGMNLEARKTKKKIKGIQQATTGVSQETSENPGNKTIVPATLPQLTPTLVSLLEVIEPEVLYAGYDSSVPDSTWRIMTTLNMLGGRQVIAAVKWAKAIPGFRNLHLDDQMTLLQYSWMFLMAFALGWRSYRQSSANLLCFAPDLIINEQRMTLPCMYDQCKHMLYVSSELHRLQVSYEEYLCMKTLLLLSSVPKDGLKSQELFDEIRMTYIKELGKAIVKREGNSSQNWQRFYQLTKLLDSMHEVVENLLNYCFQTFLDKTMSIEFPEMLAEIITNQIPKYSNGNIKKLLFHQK
assayProcedure: ATG_GR_TRANS: Attagene TRANS-FACTORIAL HepG2 Assay for human Glucocorticoid Receptor (GR) (AID 2282978);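 further: activators score as hits since higher reporter transcript over DMSO is fitted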
assayContext: HepG2 Attagene TRANS GR reporter, mRNA transcription
Records with an inconclusive call do not appear. Calls of active or inactive are those of the source. How the source made its calls: active means hit-call score of the fitted dose curve at least 0.9, where 1 is the maximum; inconclusive means response in the unintended direction; inactive means score below 0.9.
Classes used: t for active, f for inactive

> print(dat)
                                    compound                                       tgt  categorylabel
 1                               CCCCCCCCCCN  Glucocorticoid receptor (Homo sapiens) (UniProt P04150)              f
 2                          c1ccc2[nH]ccc2c1  Glucocorticoid receptor (Homo sapiens) (UniProt P04150)              f
 3      O=S(=O)(O)c1cccc2c(S(=O)(=O)O)cccc12  Glucocorticoid receptor (Homo sapiens) (UniProt P04150)              f
 4                      O=C1CCCCCCCCCCCCCCO1  Glucocorticoid receptor (Homo sapiens) (UniProt P04150)              f
 5                Nc1ccc(F)c([N+](=O)[O-])c1  Glucocorticoid receptor (Homo sapiens) (UniProt P04150)              f
 6                  C/C=C(\C)C(=O)OCc1ccccc1  Glucocorticoid receptor (Homo sapiens) (UniProt P04150)              f
 7         COc1cc(C(C)(C)C)c(O)c(C(C)(C)C)c1  Glucocorticoid receptor (Homo sapiens) (UniProt P04150)              f
 8                COc1cc(C=O)ccc1OC(=O)C(C)C  Glucocorticoid receptor (Homo sapiens) (UniProt P04150)              f
 9                          CCCCCCC#CC(=O)OC  Glucocorticoid receptor (Homo sapiens) (UniProt P04150)              f
10                            O=Cc1ccc(F)cc1  Glucocorticoid receptor (Homo sapiens) (UniProt P04150)              f
11  C[C@]12CC[C@H]3[C@@H](CCC4=CC(=O)CC[C@@]43C)[C@@H]1CC[C@@H]2C(=O)CO  Glucocorticoid receptor (Homo sapiens) (UniProt P04150)              t
12              O=C(O)c1ccc([N+](=O)[O-])cc1  Glucocorticoid receptor (Homo sapiens) (UniProt P04150)              f
13  O=C=NC1CCC(CC2CCC(N=C=O)CC2)CC1 (centres undefined)  Glucocorticoid receptor (Homo sapiens) (UniProt P04150)              f
14                  Nc1cc([N+](=O)[O-])ccc1O  Glucocorticoid receptor (Homo sapiens) (UniProt P04150)              f
15                          S=C(S)NCCNC(=S)S  Glucocorticoid receptor (Homo sapiens) (UniProt P04150)              f
16  CC(=O)O[C@]1(C(C)=O)CC[C@H]2[C@@H]3C[C@H](C)C4=CC(=O)CC[C@]4(C)[C@H]3CC[C@@]21C  Glucocorticoid receptor (Homo sapiens) (UniProt P04150)              t
17      Clc1ccc2c(c1)C(N1CCNCC1)=Nc1ccccc1O2  Glucocorticoid receptor (Homo sapiens) (UniProt P04150)              f
18                        C=CC[N+](C)(C)CC=C  Glucocorticoid receptor (Homo sapiens) (UniProt P04150)              f
19                  Cc1cccc(C)c1[N+](=O)[O-]  Glucocorticoid receptor (Homo sapiens) (UniProt P04150)              f
20              COc1c(Cl)c(Cl)c(Cl)c(Cl)c1Cl  Glucocorticoid receptor (Homo sapiens) (UniProt P04150)              f
21            CC(O)C(C)O (centres undefined)  Glucocorticoid receptor (Homo sapiens) (UniProt P04150)              f
22                         CCCCCCOC(=O)CCCCC  Glucocorticoid receptor (Homo sapiens) (UniProt P04150)              f
23                             O=CCCc1ccccc1  Glucocorticoid receptor (Homo sapiens) (UniProt P04150)              f
24  O=C1OC2(c3cc(Br)c(O)c(Br)c3Oc3c2cc(Br)c(O)c3Br)c2c(Cl)c(Cl)c(Cl)c(Cl)c21  Glucocorticoid receptor (Homo sapiens) (UniProt P04150)              f
25                          CC(=O)OCCOC(C)=O  Glucocorticoid receptor (Homo sapiens) (UniProt P04150)              f
26                           CC(C)(C)NC(N)=O  Glucocorticoid receptor (Homo sapiens) (UniProt P04150)              f
27                       NC(=O)Nc1ccc(Cl)cc1  Glucocorticoid receptor (Homo sapiens) (UniProt P04150)              f
28  CCC(=O)/C=C/C1C(C)=CCCC1(C)C (centres undefined)  Glucocorticoid receptor (Homo sapiens) (UniProt P04150)              f
29  O=C(O)c1cn(-c2ccc(F)cc2)c2cc(N3CCNCC3)c(F)cc2c1=O  Glucocorticoid receptor (Homo sapiens) (UniProt P04150)              f
